Test: Mouse pharmacokinetics of IMM60 after i.v. liposomal or soluble IMM60 (Example 7)
Format: in vivo, mouse (C57BL/6 and CD1)
Settings: mouse, plasma, iv, 0.0015 mg, individual mouse, CD1, 1500 ng i.v., 10 min
Assay metric: Cmax at 10 min (ng/mL)
Expressed in ng/mL, but write only the number.

The compound listed as CCCCCCCCCCCCCCCCCCCCCCCCCC(=O)N[C@@H](CO[C@H]1CC[C@H](O)[C@H](O)[C@H]1O)[C@H](O)[C@H](O)CCCCCCCCCCCCCC shows Cmax at 10 min equal to 62.4

---

Test: Mouse pharmacokinetics of IMM60 after i.v. liposomal or soluble IMM60 (Example 7)
Type: in vivo, mouse (C57BL/6 and CD1)
Details: mouse, plasma, iv, 0.0015 mg, individual mouse, CD1, 1500 ng i.v.; read-out: Half-life
Assay metric: half-life (h)
Expressed in h, but write only the number.

The molecule listed as CCCCCCCCCCCCCCCCCCCCCCCCCC(=O)N[C@@H](CO[C@H]1CC[C@H](O)[C@H](O)[C@H]1O)[C@H](O)[C@H](O)CCCCCCCCCCCCCC shows half-life equal to 2.66

Measured values drawn from patent US20260325617A1 for this set.
